Molecular target: Signal transducer and activator of transcription 3 (Mus musculus)
Sequence (P42227 whole entry): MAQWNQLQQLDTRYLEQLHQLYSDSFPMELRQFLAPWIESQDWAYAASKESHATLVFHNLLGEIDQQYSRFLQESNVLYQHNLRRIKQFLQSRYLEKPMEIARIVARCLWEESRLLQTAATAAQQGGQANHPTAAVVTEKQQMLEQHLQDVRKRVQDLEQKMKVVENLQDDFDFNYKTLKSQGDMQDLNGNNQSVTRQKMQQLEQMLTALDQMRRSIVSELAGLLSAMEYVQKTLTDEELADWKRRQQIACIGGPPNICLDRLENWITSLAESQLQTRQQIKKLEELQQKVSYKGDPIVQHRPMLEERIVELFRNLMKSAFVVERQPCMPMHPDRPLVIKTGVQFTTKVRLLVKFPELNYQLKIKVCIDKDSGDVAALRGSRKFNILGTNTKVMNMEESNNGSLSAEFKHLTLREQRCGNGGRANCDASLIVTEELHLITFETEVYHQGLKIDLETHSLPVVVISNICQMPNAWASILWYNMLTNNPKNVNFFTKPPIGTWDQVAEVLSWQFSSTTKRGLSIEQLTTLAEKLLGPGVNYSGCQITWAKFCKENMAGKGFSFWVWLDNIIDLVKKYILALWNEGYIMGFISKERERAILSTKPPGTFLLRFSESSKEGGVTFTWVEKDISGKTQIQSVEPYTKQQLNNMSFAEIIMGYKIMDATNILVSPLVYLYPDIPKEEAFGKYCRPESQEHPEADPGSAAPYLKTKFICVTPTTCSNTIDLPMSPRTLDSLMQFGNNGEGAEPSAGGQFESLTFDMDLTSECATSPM
Assay: Inhibition of STAT3 dimerization in mouse NIH3T3 cells expressing v-Src assessed as disruption of STAT3-STAT3: DNA complexation in nucleus after 30 mins by electrophoretic mobility shift assay
Value Type: pIC50
Just so you know, pIC50 here is -log10 of the concentration in molar units; reply with that number alone.

Given item CC(C)C[C@H](NC(=O)[C@H](Cc1ccc(OP(=O)(O)O)cc1)NC(=O)c1ccc(C#N)cc1)C(=O)Nc1ccc(C(=O)NCc2ccccc2)c(-c2ccc(C(N)=O)cc2)c1 , the value recorded as its pIC50 is 4.14

Given item CC(C)C[C@H](NC(=O)[C@H](Cc1ccc(OP(=O)(O)O)cc1)NC(=O)c1ccc(C#N)cc1)C(=O)Nc1cc(C(=O)NCc2ccccc2)cc(-c2ccc(C#N)cc2)c1 , the value recorded as its pIC50 is 4.22

Given item COC(=O)c1ccc(-c2cc(NC(=O)[C@H](CC(C)C)NC(=O)[C@H](Cc3ccc(OP(=O)(O)O)cc3)NC(=O)c3ccc(C#N)cc3)cc(C(=O)NCc3ccccc3)c2)cc1 , the value recorded as its pIC50 is 3.95

Given item CC(C)C[C@H](NC(=O)[C@H](Cc1ccc(O)cc1)NC(=O)c1ccc(C#N)cc1)C(=O)Nc1ccc(C(=O)NCc2ccccc2)c(-c2ccc(C(N)=O)cc2)c1 , the value recorded as its pIC50 is 3.99

Given item CC(C)C[C@H](NC(=O)[C@H](Cc1ccc(OP(=O)(O)O)cc1)NC(=O)c1ccc(C#N)cc1)C(=O)Nc1cc(C(=O)NCc2ccccc2)cc(-c2cccc(C(N)=O)c2)c1 , the value recorded as its pIC50 is 3.73

---

Biological target: Signal transducer and activator of transcription 3 (Mus musculus)
Assay: Inhibition of STAT3 dimerization in mouse NIH3T3 cells expressing v-Src assessed as disruption of STAT3-STAT3: DNA complexation in nucleus after 30 mins by electrophoretic mobility shift assay
Assay type: cell-based
Field: pIC50. Provide a value for each of the molecules that follow.
Just so you know, pIC50 here is -log10 of the concentration in molar units; reply with that number alone.

Given item CC(C)C[C@H](NC(=O)[C@H](Cc1ccc(OP(=O)(O)O)cc1)NC(=O)c1ccc(C#N)cc1)C(=O)Nc1ccc(C(=O)NCc2ccccc2)c(-c2ccc(C#N)cc2)c1 , the value recorded as its pIC50 is 4.48

Given item COC(=O)c1cccc(-c2cc(NC(=O)[C@H](CC(C)C)NC(=O)[C@H](Cc3ccc(OP(=O)(O)O)cc3)NC(=O)c3ccc(C#N)cc3)cc(C(=O)NCc3ccccc3)c2)c1 , the value recorded as its pIC50 is 4.18

Given item CC(C)C[C@H](NC(=O)[C@H](Cc1ccc(OP(=O)(O)O)cc1)NC(=O)c1ccc(C#N)cc1)C(=O)Nc1cc(C(=O)NCc2ccccc2)cc(-c2ccc(C(N)=O)cc2)c1 , the value recorded as its pIC50 is 5.30

Given item CC(C)C[C@H](NC(=O)[C@H](Cc1ccc(OP(=O)(O)O)cc1)NC(=O)c1ccc(C#N)cc1)C(=O)Nc1cc(C(=O)NCc2ccccc2)cc(-c2cccc(C#N)c2)c1 , the value recorded as its pIC50 is 4.04

Given item COC(=O)c1cccc(-c2cc(NC(=O)[C@H](CC(C)C)NC(=O)[C@H](Cc3ccc(OP(=O)(O)O)cc3)NC(=O)c3ccc(C#N)cc3)ccc2C(=O)NCc2ccccc2)c1 , the value recorded as its pIC50 is 4.40

Given item CC(C)C[C@H](NC(=O)[C@H](Cc1ccc(OP(=O)(O)O)cc1)NC(=O)c1ccc(C#N)cc1)C(=O)Nc1ccc(C(=O)NCc2ccccc2)c(-c2cccc(C(N)=O)c2)c1 , the value recorded as its pIC50 is 4.21

Given item CC(C)C[C@H](NC(=O)[C@H](Cc1ccc(O)cc1)NC(=O)c1ccc(C#N)cc1)C(=O)Nc1cc(C(=O)NCc2ccccc2)cc(-c2ccc(C(N)=O)cc2)c1 , the value recorded as its pIC50 is 3.72

Given item CC(C)C[C@H](NC(=O)[C@H](Cc1ccc(OP(=O)(O)O)cc1)NC(=O)c1ccc(C#N)cc1)C(=O)Nc1ccc(C(=O)NCc2ccccc2)c(-c2cccc(C#N)c2)c1 , the value recorded as its pIC50 is 4.19
